The reported measurements were obtained from patent US4147869A.

# experiment: acute toxicity (LD50) by intravenous and oral administration
# protocol_conditions: rat, in vivo, iv, male rats; i.v.; fasted 12 hours; read-out: LD50 i.v.
endpoint_label: LD50 (mg/kg)
Response body: numeric value in mg/kg, unit text excluded.

Ask: Look up LD50 for this compound: COc1ccccc1N1CCN(CC(O)COc2ccc(NC(C)=O)c3c2CCC(=O)N3)CC1 (stereo not drawn)
Result: 125

Ask: Look up LD50 for this compound: CCOC(=O)Nc1ccc(OCC(O)CNCCOc2ccc(C(N)=O)cc2)c2c1NC(=O)CC2 (stereo not drawn)
Result: 145

Ask: Look up LD50 for this compound: COc1ccc(CCNCC(O)COc2ccc(NC(C)=O)c3c2CCC(=O)N3)cc1OC (stereo not drawn)
Result: 158

Ask: Look up LD50 for this compound: Cc1ccc(S(=O)(=O)Nc2ccc(OCC(O)CNCCOc3ccc(C(N)=O)cc3)c3c2NC(=O)CC3)cc1 (stereo not drawn)
Result: 115

Ask: Look up LD50 for this compound: COc1ccc(OCCNCC(O)COc2ccc(NC(N)=O)c3c2CCC(=O)N3)cc1 (stereo not drawn)
Result: 156

Ask: Look up LD50 for this compound: COc1ccc(CCNCC(O)COc2c(NC(C)=O)ccc3c2CCC(=O)N3)cc1OC (stereo not drawn)
Result: 160
